# credit: ChEMBL document CHEMBL3864177

Molecular target: Cathepsin B (Homo sapiens)
Consider the following compounds; for each one, report its Ki.
Provide only the numeric value, understood in nM.

Query block: Can you look up Ki on Cathepsin B (Homo sapiens) for "CC(C)C[C@H](NC(=O)OCc1ccccc1)C(=O)N[C@@H](C)/C=C/[N+](=O)[O-]" ?
Result block: 310

Query block: Same read-out for "O=C(N[C@@H](Cc1ccccc1)C(=O)N[C@H](/C=C/[N+](=O)[O-])Cc1ccccc1)OCc1ccccc1" ?
Result block: 310

Query block: Same read-out for "CC(C)C[C@@H](/C=C/[N+](=O)[O-])NC(=O)[C@H](CC(C)C)NC(=O)OCc1ccccc1" ?
Result block: 210

Query block: Same read-out for "C/C(=C\[C@H](C)NC(=O)[C@H](CC(C)C)NC(=O)OCc1ccccc1)[N+](=O)[O-]" ?
Result block: 3200
